Assay: in vivo
Settings: female, CD-1, mouse, plasma, iv, 30 mg/kg
Non-standard residues stand in square brackets, D forms with d. Residues, ends and D or L forms follow the SMILES beside them. Dab(3S-OH) = NC[C@H](O)[C@H](N)C(=O)O; Phe(2-F) = N[C@@H](Cc1ccccc1F)C(=O)O; ΔZArg = N=C(N)NCC/C=C(\N)C(=O)O; dOrn = NCCC[C@@H](N)C(=O)O; Dab = NCC[C@H](N)C(=O)O
measurement_type: AUC(0-t) (ng·h/mL)
The response must be a number in ng·h/mL with no trailing unit.

Exercise: Identify AUC(0-t) associated with the compound N=C(N)NCC/C=C(\NC(=O)[C@H](CCCCN)NC(=O)[C@H](Cc1ccccc1F)NC(=O)[C@@H]1CCCN1C(=O)[C@@H](CCCN)NC(=O)CNC(=O)[C@H](CCN)NC(=O)[C@@H](NC(=O)[C@@H](N)CCCCN)[C@@H](O)CN)C(=O)O [NOSO-502] (H-K[Dab(3S-OH)][Dab]G[dOrn]P[Phe(2-F)]K[ΔZArg]-OH)
Key: 8880

====

Experiment: in vivo
Conditions: female, CD-1, mouse, plasma, iv, 30 mg/kg
Non-standard residues stand in square brackets, D forms with d. Residues, ends and D or L forms follow the SMILES beside them. Dab(3S-OH) = NC[C@H](O)[C@H](N)C(=O)O; Phe(2-F) = N[C@@H](Cc1ccccc1F)C(=O)O; ΔZArg = N=C(N)NCC/C=C(\N)C(=O)O; dOrn = NCCC[C@@H](N)C(=O)O; Dab = NCC[C@H](N)C(=O)O
measurement_type: half-life (min)
The response must be a number in min with no trailing unit.

Exercise: Identify half-life associated with the compound N=C(N)NCC/C=C(\NC(=O)[C@H](CCCCN)NC(=O)[C@H](Cc1ccccc1F)NC(=O)[C@@H]1CCCN1C(=O)[C@@H](CCCN)NC(=O)CNC(=O)[C@H](CCN)NC(=O)[C@@H](NC(=O)[C@@H](N)CCCCN)[C@@H](O)CN)C(=O)O [NOSO-502] (H-K[Dab(3S-OH)][Dab]G[dOrn]P[Phe(2-F)]K[ΔZArg]-OH)
Key: 25

====

Assay: in vitro
Conditions: mouse, plasma, pH 7.4
Non-standard residues stand in square brackets, D forms with d. Residues, ends and D or L forms follow the SMILES beside them. Dab(3S-OH) = NC[C@H](O)[C@H](N)C(=O)O; Phe(2-F) = N[C@@H](Cc1ccccc1F)C(=O)O; ΔZArg = N=C(N)NCC/C=C(\N)C(=O)O; dOrn = NCCC[C@@H](N)C(=O)O; Dab = NCC[C@H](N)C(=O)O
measurement_type: half-life at 10 μM (min)
The response must be a number in min with no trailing unit.

Exercise: Identify half-life at 10 μM associated with the compound N=C(N)NCC/C=C(\NC(=O)[C@H](CCCCN)NC(=O)[C@H](Cc1ccccc1F)NC(=O)[C@@H]1CCCN1C(=O)[C@@H](CCCN)NC(=O)CNC(=O)[C@H](CCN)NC(=O)[C@@H](NC(=O)[C@@H](N)CCCCN)[C@@H](O)CN)C(=O)O [NOSO-502] (H-K[Dab(3S-OH)][Dab]G[dOrn]P[Phe(2-F)]K[ΔZArg]-OH)
Key: 54
